Reference source: PubChem BioAssay (Tox21)

- tgt: Nuclear receptor subfamily 1 group I member 3 (Homo sapiens) (UniProt Q14994)
- Sequence (Q14994 whole entry, looked up): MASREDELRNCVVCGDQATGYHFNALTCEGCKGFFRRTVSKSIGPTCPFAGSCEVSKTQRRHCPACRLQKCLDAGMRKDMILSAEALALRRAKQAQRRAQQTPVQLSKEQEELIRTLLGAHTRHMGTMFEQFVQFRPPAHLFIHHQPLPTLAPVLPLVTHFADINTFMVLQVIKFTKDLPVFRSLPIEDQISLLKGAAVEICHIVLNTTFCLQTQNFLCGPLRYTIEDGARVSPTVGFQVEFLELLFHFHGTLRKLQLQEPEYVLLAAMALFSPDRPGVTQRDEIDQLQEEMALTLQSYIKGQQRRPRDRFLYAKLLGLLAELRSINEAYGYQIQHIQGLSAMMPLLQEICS
- method: qHTS assay to identify small molecule antagonists of the constitutive androstane receptor (CAR) signaling pathway (AID 1224838);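 note: HepG2 cells stably expressing hCAR with CYP2B6 luciferase reporter stimulated by CITCO; nearly all actives have a fitted effect of over 40% in size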
- assay_setup: HepG2-CYP2B6-hCAR luciferase, CITCO-stimulated, 24 h; series mostly up to 92.4 µM
Inconclusive results are not listed. The source made the active and inactive calls. Calls come from the whole dose curve; as a rule, active = well fitted inhibition curve with a large enough effect in the repeat runs; inconclusive = weak or mixed curves, or effect the other way; inactive = no such curve, though single readings can be large or run the other way.
Choose the fitting class; nothing outside TRUE = active, FALSE = inactive is accepted.

Reference set, count: 2
C1COCCN1 | FALSE
CCCOCCO | FALSE

GET /call?item= C/C=C/C(=O)N(CC)c1ccccc1C returns the recorded outcome of this test. FALSE

Param item: C=CN1CCCC1=O FALSE

How about this compound: COc1ccc2nc(N)sc2c1 FALSE

Moving on to Nc1ccc(N)c(Cl)c1 FALSE
